test system: Tov-21-G; test: Primary qHTS to identify gynecologic anti-cancer compounds using libraries of approved drugs and bioactive compounds (AID 1345084); conditions: Gynecologic cancer cell panel viability, ATPlite luminescence, 48 h; series mostly up to 57.5 µM; note: nearly all actives have a fitted effect of over 55% in size
Records with an inconclusive call do not appear. Activity calls are given as the source filed them. Calls come from the whole dose curve; as a rule, active = well fitted cell-killing curve with a large enough effect; inconclusive = small, poorly fitted or top-dose-only effect, or effect the other way; inactive = flat fitted curve, though single readings scatter.
Form entry, call: pick from YES (active), NO (inactive)

- Compound: "C=C1C(=O)OC2CC3(C)C(O)C(=O)C=C(C)C3CC12 (stereo not drawn)"
  Assay target: "Tov-21-G"
  Assigned category: "NO"
- Compound: "CN(C)S(=O)(=O)c1ccc(NC(=S)N2CCC(C(O)(c3ccccc3)c3ccccc3)CC2)cc1"
  Assay target: "Tov-21-G"
  Assigned category: "NO"
- Compound: "Cc1c(Cl)cccc1S(=O)(=O)Nc1nc(NCCc2ccccc2)nc2c1CN(Cc1ccccc1)CC2"
  Assay target: "Tov-21-G"
  Assigned category: "NO"

### Prompt Call for entry `O=C(NCCCc1ccccc1)c1cccc(-c2cc(O)c3ncccc3c2)c1` :
### Response NO

### Prompt Call for entry CCC(C)C(=O)O[C@H]1[C@@H](OC(=O)c2ccoc2)C[C@](C)(O)[C@]23OC(C)(C)[C@H](C[C@H](OC(=O)c4ccoc4)[C@]12COC(C)=O)[C@H]3OC(C)=O (stereo partly drawn) :
### Response NO

### Prompt Call for entry COc1cc2c(cc1O)C1(Cc3ccc4c(c3C1O)OCO4)[N+](C)([O-])CC2 (stereo not drawn) :
### Response NO

---

system: HEK293; experiment: Cytotoxic Profiling of Annotated Libraries Using Quantitative High-Throughput Screening (AID 1296008); details: Five cell lines viability, CellTiter-Glo ATP luminescence, 48-72 h; note: potency is the fitted concentration of half-maximal effect; nearly all actives have a fitted effect of over 60% in size
Results filed as inconclusive are left out. Calls of active or inactive are those of the source. Calls come from the whole dose curve; as a rule, active = well fitted inhibition curve with a large enough effect; inconclusive = small, poorly fitted or top-dose-only effect; inactive = flat fitted curve, though single readings scatter.
Below: a set of entries, each annotated with reported Potency.

- Molecule: "C=CC(=O)Nc1ccc(CN2C(=O)N(c3cc(OC)cc(OC)c3)Cc3cnc(Nc4ccc(N5CCN(C)CC5)cc4)nc32)cc1"
  Parameter: "Potency"
  Assay result: "11.6 µM (active)"

### Prompt Please report Potency for the following molecule: `Fc1ccc(-n2cc(CCCCN3CCC4(CC3)OCc3ccccc34)c3ccccc32)cc1`
### Response 18.4 µM (active)

### Prompt Please report Potency for the following molecule: `Cc1[nH]c2ccc(F)cc2c1-c1nc2c3cccnc3c3ncccc3c2[nH]1`
### Response 4.61 µM (active)

### Prompt Please report Potency for the following molecule: O=C(Nc1ccc(Cl)cc1)C1CCCN(C(=O)c2cccc(-c3ccco3)c2)C1 (stereo not given)
### Response 18.4 µM (active)

### Prompt Please report Potency for the following molecule: `COC(=O)N1CC2(CC2)C[C@H](C(=O)NO)[C@H]1C(=O)N1CCN(c2ccccc2)CC1`
### Response 23.4 µM (active)

---

test system: OV90; assay: Primary qHTS to identify gynecologic anti-cancer compounds using libraries of approved drugs and bioactive compounds (AID 1345084); settings: Gynecologic cancer cell panel viability, ATPlite luminescence, 48 h; series mostly up to 57.5 µM; note: nearly all actives have a fitted effect of over 55% in size; note: potency is the fitted concentration of half-maximal effect
Inconclusive results are not listed. The source made the active and inactive calls. Calls follow the shape of the dose curve; as a rule, active = well fitted cell-killing curve with a large enough effect; inconclusive = small, poorly fitted or top-dose-only effect, or effect the other way; inactive = flat fitted curve, though single readings scatter.
Parameter: Potency

Consider the reported Potency for these molecules:
- Molecule: "O=C(Nc1ccccc1)N1CCN(c2nc(-c3ccccc3)ns2)CC1"
  Potency: "inactive"
- Molecule: "Cn1ncc(Cl)c1-c1cc(C(=O)N[C@H](CN)Cc2ccc(F)c(F)c2)oc1Cl"
  Potency: "14.1 µM (active)"
- Molecule: "Cc1cnc(-c2ccccc2C(C)C)nc1NCc1ccc(-n2ccnn2)cc1"
  Potency: "inactive"
- Molecule: "COc1ccc(NC(=O)c2ccc(-c3ccc(C(=N)N)cc3C)cc2)cc1N1CCN(C)CC1"
  Potency: "inactive"

### Prompt Please report Potency for the following molecule: CN(C)CCOC(C)(c1ccccc1)c1ccc(Cl)cc1 (stereo not drawn)
### Response inactive

### Prompt Please report Potency for the following molecule: `COc1ccc(C#Cc2ccc(C(=O)N3CCC[C@@H](CO)C3)cc2)cc1`
### Response inactive

### Prompt Please report Potency for the following molecule: `Nc1cccc(CNC(=O)c2ccc(Oc3ccc(OCc4cccc(F)c4)cc3)nc2)c1`
### Response inactive

### Prompt Please report Potency for the following molecule: C=CC(C)(O)CC[C@@H]1[C@@]2(C)CCCC(C)(C)C2CC[C@@]1(C)O (stereo partly drawn)
### Response inactive

### Prompt Please report Potency for the following molecule: `Cn1ncnc1[C@H]1c2n[nH]c(=O)c3cc(F)cc(c23)N[C@@H]1c1ccc(F)cc1`
### Response inactive

### Prompt Please report Potency for the following molecule: `CN(C)c1ccc(NC(=O)NS(=O)(=O)c2ccc(Cl)cc2)cc1`
### Response inactive

### Prompt Please report Potency for the following molecule: `FC(F)(F)c1ccccc1-c1cc(C(F)(F)F)c2nc(C3=NOC4(CCCCC4)C3)[nH]c2c1`
### Response inactive

### Prompt Please report Potency for the following molecule: O=[N+]([O-])c1ccc(Oc2ccc3c(c2)CCC(c2ccccc2)O3)nc1 (stereo not drawn)
### Response inactive

### Prompt Please report Potency for the following molecule: CC1OC2OC(=O)C3(C)CC4C5(CO5)C5=CC(=O)OC(C)(C)C5=CC(=O)C4(C)C(C1=O)C23 (stereo not drawn)
### Response inactive

### Prompt Please report Potency for the following molecule: CC(=O)O[C@@H]1CC2C(C)(C)C(=O)C=C[C@]2(C)C2CC[C@@]3(C)[C@H](c4ccoc4)OC(=O)[C@H]4O[C@]43[C@@]21C (stereo partly drawn)
### Response inactive

### Prompt Please report Potency for the following molecule: `Cc1nc2c(C(F)(F)F)cccc2nc1-c1ccc(-c2cccc(S(C)(=O)=O)c2)cc1`
### Response inactive

### Prompt Please report Potency for the following molecule: COc1cc(-c2cn(C3CCc4c(F)cccc4N(CC(F)(F)F)C3=O)nn2)ccc1-n1cnc(C)c1 (stereo not drawn)
### Response inactive

### Prompt Please report Potency for the following molecule: `Cc1[nH]c2ccccc2c1CCNC(=O)c1cccs1`
### Response inactive

### Prompt Please report Potency for the following molecule: `COc1cc2nc(N3CCN(C(=O)COc4c(OC)cccc4C(C)C)CC3)nc(N)c2cc1OC`
### Response inactive

### Prompt Please report Potency for the following molecule: `CC(C)(N)c1ncc(-c2ccc(OC(F)(F)F)cc2)[nH]1`
### Response inactive

### Prompt Please report Potency for the following molecule: `Cc1cc(N2CCOCC2)ccc1Nc1nc(NC2CCCCC2)c2[nH]cnc2n1`
### Response inactive

### Prompt Please report Potency for the following molecule: `C=C(C)Cn1c(SCC(=O)c2cccs2)nc2sc3c(c2c1=O)CCCC3`
### Response inactive

### Prompt Please report Potency for the following molecule: C=C1C(=O)O[C@@H]2[C@H]1CC[C@H](C)[C@]1(CCC(=O)O1)C2(C)O (stereo partly drawn)
### Response inactive

### Prompt Please report Potency for the following molecule: CC1(C(=O)Nc2ccc(F)nc2)CCCN1c1nc(Nc2cc(C3CC3)[nH]n2)c2cccn2n1 (stereo not drawn)
### Response 3.55 µM (active)

### Prompt Please report Potency for the following molecule: `CC1(C)CCC(C)(C)c2cc(C#Cc3ccc(C(=O)O)cc3)ccc21`
### Response inactive
